experimental details: NCI Yeast Anticancer Drug Screen. Data for the rad50 strain (AID 155);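 further: 0% = growth of vehicle-only cultures of the same strain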
assay conditions: S. cerevisiae rad50 strain growth inhibition; at 3.7 µM
The panel holds about 79,000 compounds, 15% with a hit somewhere; the sample as a whole holds those more often. Calls of active or inactive are those of the source. No stated cut-off is given here; in the data, active means growth inhibition above about 70%; inactive means the rest.
Possible outcomes: active, inactive

# compound, discrete label
measured = [
    ("O=C(COC(=O)c1ccccc1)c1ccc(Br)cc1", "inactive"),
    ("CCc1c[n+]([O-])c(C)cc1[N+](=O)[O-]", "inactive"),
    ("CCOC1=C/C(=N\\Nc2ccc([N+](=O)[O-])cc2)CCC1", "inactive"),
    ("Brc1ccccc1-c1ncc(-c2ccccc2)o1", "inactive"),
    ("Oc1ccc(O)c(Cc2ccccc2)c1", "active"),
    ("Oc1ccc2ccccc2c1CCc1c(O)ccc2ccccc12", "inactive"),
    ("Cc1nc2c(Br)cc(Br)cc2c(=O)n1-c1ccccc1NC1OCC(O)C(O)C1O (configuration not stated)", "inactive"),
    ("COc1oc(C(=O)NC2CCCCC2)c(-c2ccc(Cl)cc2)c1S(=O)(=O)c1ccccc1", "inactive"),
    ("O=C(NO)Nc1cc(Cl)cc(Cl)c1", "inactive"),
    ("CCN(CC)CCNc1ccc2ncn3c4cc(OC)c(OC)c(=O)c4c(O)c1c23", "inactive"),
    ("O=C(NCCCl)Sc1ccc(Cl)cc1", "inactive"),
    ("Clc1ccc(NCNC2Nc3ccccc3N2)cc1Cl", "inactive"),
]

----------
experimental details: NCI Yeast Anticancer Drug Screen. Data for the wt2 strain (AID 169);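 further: 0% = growth of vehicle-treated yeast cultures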
assay conditions: S. cerevisiae wt2 strain growth inhibition; at 11.0 µM
Compounds without any hit were thinned out: in the full panel of roughly 79,000, 15% have a hit. Activity calls are given as the source filed them. No stated cut-off is given here; in the data, active means growth inhibition above about 70%; inactive means the rest.
Possible outcomes: active, inactive

# compound, discrete label
rows = [
    ("CCOC(=O)C1=C(C)NC(C)=C(C(=O)OCCNC(=O)c2ccc(N=[N+]=[N-])cc2)C1c1ccccc1C(F)(F)F (configuration not stated)", "inactive"),
    ("CN(C)Cc1cc(N=Nc2ccc(Cl)cc2)ccc1OC(=O)c1ccccc1", "inactive"),
    ("O=[N+]([O-])c1cc(F)c(F)cc1Sc1cc(F)c(F)cc1[N+](=O)[O-]", "active"),
    ("CN(C)[C@@H]1C(=O)C(C(N)=O)=C(O)[C@@]2(O)C(=O)C3=C(O)c4c(O)cccc4C[C@H]3C[C@@H]12", "inactive"),
    ("O=P(NC1CCCCC1)(OCc1ccccc1)OCc1ccccc1", "inactive"),
    ("Cc1ccc(S/C(=C\\C(=O)O)c2ccccc2)cc1", "inactive"),
    ("Cc1nc(Nc2ccccc2[N+](=O)[O-])sc1C(=O)CC(=O)C(=O)Nc1c(C(C)C)cccc1C(C)C", "inactive"),
]

----------
experimental details: NCI Yeast Anticancer Drug Screen. Data for the rad18 strain (AID 177)
assay conditions: S. cerevisiae rad18 mutant growth inhibition; at 33.0 µM; hits give high values
About 79,000 compounds went through this panel and 15% of them were active in at least one assay; those are over-represented in the sample as a whole. The source made the active and inactive calls. Rule as the data show it: active = growth inhibition above about 70%; inactive = the rest.
Recorded growth inhibition, one value per entry.
endpoint label: growth inhibition

# compound, measured result
records = [
    ("O=C1CSC(c2cccc(Cl)c2)N1c1ccc(-c2ccc(-n3c(-c4ccccc4)nc4ccccc4c3=O)cc2)cc1 (stereo unspecified)", "22% (inactive)"),
    ("Oc1cccc2cc(Cl)cnc12", "96% (active)"),
    ("CCC(C)NC1=NCC(C)S1 (stereo unspecified)", "-26% (inactive)"),
    ("CN(C)CCNC(=O)c1cccc2c1Oc1c(cccc1[N+](=O)[O-])O2", "13% (inactive)"),
    ("O=C1C=C(Cl)C(=O)N1c1cccc(Cl)c1", "99% (active)"),
    ("COC(=O)Oc1cc(Cl)c(Cl)cc1Cl", "9% (inactive)"),
    ("C[C@@](O)(/C=C/[C@H]1CC=CC(=O)O1)[C@@H](C[C@@H](O)\\C=C/C=C\\C=C\\CO)OP(=O)(O)O", "54% (inactive)"),
    ("Cc1ccc(Sc2ccccc2N)cc1", "12% (inactive)"),
    ("O=[N+]([O-])c1cccc2nc3ccccc3c(NCCCn3ccnc3[N+](=O)[O-])c12", "96% (active)"),
    ("CCOc1ccc(NC(=O)C2=C(C)NC(C)=C(C(=O)Nc3ccc(OCC)cc3)C2c2cccc([N+](=O)[O-])c2)cc1", "45% (inactive)"),
    ("CCCCN(CCCC)CCC(O)c1cc2c(Cl)cc(Cl)cc2c2cc(C(F)(F)F)ccc12 (stereo unspecified)", "99% (active)"),
]
